- target_entity: human PAH with the R408W mutation (Homo sapiens, UniProt P00439, R408W)
- Construct: expressed in transfected cells
- Sequence (P00439 whole entry R408W): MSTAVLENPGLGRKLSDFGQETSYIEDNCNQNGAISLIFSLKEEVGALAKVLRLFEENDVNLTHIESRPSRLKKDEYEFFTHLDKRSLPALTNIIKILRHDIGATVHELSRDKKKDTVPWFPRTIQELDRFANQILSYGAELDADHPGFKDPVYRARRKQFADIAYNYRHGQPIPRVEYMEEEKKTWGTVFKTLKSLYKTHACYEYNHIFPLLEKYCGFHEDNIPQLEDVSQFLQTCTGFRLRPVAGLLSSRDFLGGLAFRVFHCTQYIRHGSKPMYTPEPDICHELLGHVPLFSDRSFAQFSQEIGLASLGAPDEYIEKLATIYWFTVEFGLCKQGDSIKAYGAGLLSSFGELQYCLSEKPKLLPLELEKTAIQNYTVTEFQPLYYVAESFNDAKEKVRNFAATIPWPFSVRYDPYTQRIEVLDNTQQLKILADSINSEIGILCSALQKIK
- assay_summary: Cell Based Phenylalanine Flux Assay;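 further: after compound treatment, cells received sepiapterin plus isotope-labelled Phenylalanine for 4 hours, then labelled Tyrosine in the medium was quantified, 10-point 2-fold dilution series run in duplicate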
- measurement_setup: A375 cells expressing R408W PAH; 24 hrs with compound, then 20 µM sepiapterin and 800 µM 13C9,15N-Phenylalanine for 4 hours; 13C-Tyrosine by LC-MS; average where tested multiple times; read-out: AC50
Measured AC50, listed per entry for reference.

Solved entries:
Cc1nc(C(C)O)oc1C(=O)N1CCc2[nH]cnc2C1c1cc2cccc(Cl)n2n1 (stereo not drawn) | > 5 µM
Fc1cccn2nc(C3c4nc[nH]c4CCN3c3nnc(N4CCOCC4)o3)cc12 (stereo not drawn) | 1 to 5 µM
Cn1nc(C(C)(C)C)cc1C(=O)N1CCc2[nH]cnc2C1c1cc2ccccn2n1 (stereo not drawn) | 1 to 5 µM
Nc1cnc(N2CCc3[nH]cnc3[C@H]2c2cc3cccc(C(F)F)n3n2)nc1 (single isomer, unassigned) | > 5 µM
Cc1c(C2c3nc[nH]c3CCN2C(=O)c2nnc(-c3ccn(C)n3)o2)nn2ccccc12 (stereo not drawn) | > 5 µM

The record that follows has no AC50 shown yet.
Name the recorded AC50 for COc1cccn2nc(C3c4nc[nH]c4CCN3C(=O)c3cc(C(C)(C)C)nn3C)cc12 (stereo not drawn) . 1 to 5 µM

All values here come from patent US20230365592A1.
